# Test system: CEM cells HIV-1 protection, formazan growth assay
# experiment_summary: NCI AIDS Antiviral Assay
# experimental_context: measured here: growth of uninfected CEM cells
measured_quantity: IC50

For orientation, consider the following solved cases.
NS(=O)(=O)c1cc2c(cc1Cl)NC(/C(=N/NC(=O)c1ccncc1)C1C(=O)NC(=O)NC1=O)=NS2(=O)=O :: > 87.1 µM
O=C1CCCCC/C1=C\c1cccc(F)c1 :: > 100 µM
COc1ccc(C2=C/C(=C3/C(=O)C=C(C)OC3=O)SS2)cc1 :: > 100 µM

// for each compound in input: emit IC50
1. OCC1=CCN2C[C@@H](O)[C@@H](O)[C@@H]12
2. O=C1N(Cl)C2(c3ccccc3)N(Cl)C(=O)N(Cl)C2(c2ccccc2)N1Cl (stereo not drawn)
3. CNC(=O)CN(CC(=O)NC)C(=O)NC
4. O=C1OC(=O)C2C1C(c1ccc(Cl)cc1)N1C3C(=O)OC(=O)C3C(c3ccc(Cl)cc3)N21 (stereo not drawn)
5. CCOC(=O)/C=C1\CONC(c2ccc(OC)cc2)=N1

Output line:
["> 200 µM", "> 200 µM", "> 120 µM", "> 28.8 µM", "> 19.1 µM"]

* * *

# Tested on: CEM cells HIV-1 protection, formazan growth assay
# experiment_summary: NCI AIDS Antiviral Assay
Answer each item with its documented EC50.

For orientation, consider the following solved cases.
CC1(C)CC(=O)C2C(C1)OC1CC(C)(C)CC(=O)C1C2c1ccc2c(c1)OCO2 (centres undefined) :: > 200 µM
Cc1csc([C@H]2CCC3[C@@H]4CC=C5C[C@@H](OC(=O)CCC(=O)O)CC[C@]5(C)C4CC[C@@]32C)n1 (some centres undefined) :: > 52.5 µM
CC1=C(C)SC(=C2Sc3nc(O)[nH]c(=O)c3S2)S1 :: > 200 µM
CCCC(O)c1ccc2[nH]c3c(C)cc([N+](=O)[O-])c(C)c3c2c1 (centres undefined) :: > 4.68 µM
CCCCNC1=C(C(=O)OCC)C(=O)CO1 :: > 794 µM
Cn1c(=O)[nH]n(C2Cn3c(=O)n(C)c(=O)n3-c3ccccc32)c1=O (centres undefined) :: > 200 µM
Cn1c(NS(=O)(=O)c2ccccc2)nc2ccccc21 :: > 200 µM
O=S(=O)(/N=S(/Nc1ccccc1)C(Cl)Cl)c1ccccc1 (centres undefined) :: > 200 µM

Now look at this one.
Input line: What EC50 appears in the records for this compound with CEM cells HIV-1 protection, formazan growth assay? CN(C)C(=O)Oc1c(-c2ccccc2)c(=O)n2c3ccccc3n3c(=O)n(C)c(=O)c1c23
Output line: > 1.26 µM

Reference source: PubChem BioAssay AID179
